biological target: human MC4R receptor (human, UniProt P32245 1-332); assay: cell-based or functional assay
Sequence (P32245 whole entry): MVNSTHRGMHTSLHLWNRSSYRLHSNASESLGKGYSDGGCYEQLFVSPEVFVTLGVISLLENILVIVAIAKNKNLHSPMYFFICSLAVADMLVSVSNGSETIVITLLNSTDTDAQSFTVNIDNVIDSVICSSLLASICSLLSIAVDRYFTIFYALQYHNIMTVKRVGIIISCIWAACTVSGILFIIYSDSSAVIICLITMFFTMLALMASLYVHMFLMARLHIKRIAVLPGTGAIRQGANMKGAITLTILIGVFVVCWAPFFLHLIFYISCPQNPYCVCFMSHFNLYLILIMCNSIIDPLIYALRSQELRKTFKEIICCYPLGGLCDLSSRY
Starred links: 1 amine or outer side, 2 acyl side, 3 side chain; linkers in the order of their positions; H or OH if unused. Positions of bridges follow the written chain, without caps; N, C: chain ends. Non-standard residues stand in square brackets, D forms with d. dPhe(4-NHAc) = 4-acetamido-D-phenylalanine, CC(=O)Nc1ccc(C[C@@H](N[*:1])C(=O)[*:2])cc1; dTyr(4-OMe) = O-methyl-D-tyrosine (4-OMe), COc1ccc(C[C@@H](N[*:1])C(=O)[*:2])cc1; dPhe(4-Br) = N[C@H](Cc1ccc(Br)cc1)C(=O)O; dPhe(4-I) = N[C@H](Cc1ccc(I)cc1)C(=O)O; d2Nal = N[C@H](Cc1ccc2ccccc2c1)C(=O)O; Tic = O=C(O)[C@@H]1Cc2ccccc2CN1; Nle = CCCC[C@H](N)C(=O)O; R2 = not defined here
// label = criterion met if % max activation is not less than 40%, otherwise criterion not met

Observe how each entry below is paired with its result.
Ac-R[Nle]CH[dPhe(4-Br)]R[dW]C-NH2 (disulfide 3-8; SMILES CCCC[C@H](NC(=O)[C@H](CCCNC(=N)N)NC(C)=O)C(=O)N[C@H]1CSSC[C@@H](C(N)=O)NC(=O)[C@@H](Cc2c[nH]c3ccccc23)NC(=O)[C@H](CCCNC(=N)N)NC(=O)[C@@H](Cc2ccc(Br)cc2)NC(=O)[C@H](Cc2c[nH]cn2)NC1=O) [CTX-1231]; criterion met
Ac-RC[dA]R[dF][dR][dW]C-NH2 (disulfide 2-8; SMILES CC(=O)N[C@@H](CCCNC(=N)N)C(=O)N[C@H]1CSSC[C@@H](C(N)=O)NC(=O)[C@@H](Cc2c[nH]c3ccccc23)NC(=O)[C@@H](CCCNC(=N)N)NC(=O)[C@@H](Cc2ccccc2)NC(=O)[C@H](CCCNC(=N)N)NC(=O)[C@@H](C)NC1=O) [CTX-1283]; criterion met
Ac-R[Nle]CH[dPhe(4-I)]R[dW]C-NH2 (disulfide 3-8; SMILES CCCC[C@H](NC(=O)[C@H](CCCNC(=N)N)NC(C)=O)C(=O)N[C@H]1CSSC[C@@H](C(N)=O)NC(=O)[C@@H](Cc2c[nH]c3ccccc23)NC(=O)[C@H](CCCNC(=N)N)NC(=O)[C@@H](Cc2ccc(I)cc2)NC(=O)[C@H](Cc2c[nH]cn2)NC1=O) [CTX-1233]; criterion not met
Ac-R[Nle]CH[dPhe(4-Br)]RWC-NH2 (disulfide 3-8; SMILES CCCC[C@H](NC(=O)[C@H](CCCNC(=N)N)NC(C)=O)C(=O)N[C@H]1CSSC[C@@H](C(N)=O)NC(=O)[C@H](Cc2c[nH]c3ccccc23)NC(=O)[C@H](CCCNC(=N)N)NC(=O)[C@@H](Cc2ccc(Br)cc2)NC(=O)[C@H](Cc2c[nH]cn2)NC1=O) [CTX-1229]; criterion not met
R2-RC[dA]R[dPhe(4-Br)]R[dW]C-NH2 (disulfide 2-8; reading uncertain; also: printed as N-term. Mod. R2; Arg-cyclo(Cys-D-Ala-Arg-D-Phe(4-Br)-Arg-D-Trp-Cys)-NH2) [CTX-1226]; criterion met
Ac-CGR[dTyr(4-OMe)]RFC-NH2 (disulfide 1-7; SMILES COc1ccc(C[C@H]2NC(=O)[C@H](CCCNC(=N)N)NC(=O)CNC(=O)[C@@H](NC(C)=O)CSSC[C@@H](C(N)=O)NC(=O)[C@H](Cc3ccccc3)NC(=O)[C@H](CCCNC(=N)N)NC2=O)cc1) [CTX-1641]; criterion met
Ac-RC[dA]R[dPhe(4-Br)]R[dW]CRF-NH2 (disulfide 2-8; SMILES CC(=O)N[C@@H](CCCNC(=N)N)C(=O)N[C@H]1CSSC[C@@H](C(=O)N[C@@H](CCCNC(=N)N)C(=O)N[C@@H](Cc2ccccc2)C(N)=O)NC(=O)[C@@H](Cc2c[nH]c3ccccc23)NC(=O)[C@H](CCCNC(=N)N)NC(=O)[C@@H](Cc2ccc(Br)cc2)NC(=O)[C@H](CCCNC(=N)N)NC(=O)[C@@H](C)NC1=O) [CTX-1220]; criterion met
Ac-RC[dA]R[dPhe(4-Br)]R[dA]C-NH2 (disulfide 2-8; SMILES CC(=O)N[C@@H](CCCNC(=N)N)C(=O)N[C@H]1CSSC[C@@H](C(N)=O)NC(=O)[C@@H](C)NC(=O)[C@H](CCCNC(=N)N)NC(=O)[C@@H](Cc2ccc(Br)cc2)NC(=O)[C@H](CCCNC(=N)N)NC(=O)[C@@H](C)NC1=O) [CTX-1260]; criterion not met

Ask: # bool: % max activation of Ac-RC[dA]R[dPhe(4-Br)]R[Tic]C-NH2 (disulfide 2-8) [CTX-1259] >= 40%
Reply: criterion met

Ask: # bool: % max activation of Ac-RC[dA]R[dPhe(4-NHAc)]R[dW]C-NH2 (disulfide 2-8) [CTX-1245] >= 40%
Reply: criterion not met

Ask: # bool: % max activation of Ac-RC[dA]R[dPhe(4-Br)]R[d2Nal]C-NH2 (disulfide 2-8; SMILES CC(=O)N[C@@H](CCCNC(=N)N)C(=O)N[C@H]1CSSC[C@@H](C(N)=O)NC(=O)[C@@H](Cc2ccc3ccccc3c2)NC(=O)[C@H](CCCNC(=N)N)NC(=O)[C@@H](Cc2ccc(Br)cc2)NC(=O)[C@H](CCCNC(=N)N)NC(=O)[C@@H](C)NC1=O) [CTX-1254] >= 40%
Reply: criterion not met
